Provenance of the data: patent WO2011083140A1

# testedTarget: T1, human CXCR4 (human, UniProt P61073 1-352)
# T1 construct: whole, on cells; Same receptor used on cells, on VLPs and in membrane extracts; also called hCXCR4; human chemokine receptor CXCR4
# T1 sequence (P61073 whole entry): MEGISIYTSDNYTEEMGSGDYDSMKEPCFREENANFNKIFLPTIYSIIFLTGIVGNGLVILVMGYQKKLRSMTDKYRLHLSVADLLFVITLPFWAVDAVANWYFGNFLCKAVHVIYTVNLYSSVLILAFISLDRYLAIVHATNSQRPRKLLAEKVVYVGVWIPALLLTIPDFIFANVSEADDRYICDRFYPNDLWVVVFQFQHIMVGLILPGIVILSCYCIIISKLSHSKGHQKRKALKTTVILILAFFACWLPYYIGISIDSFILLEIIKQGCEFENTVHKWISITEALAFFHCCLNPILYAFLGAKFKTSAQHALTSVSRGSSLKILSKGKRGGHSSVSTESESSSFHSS
# experimentDescription: SDF-1 displacement (competition with SDF-1 for CXCR4), Table C-3
pIC50: −log10 of the molar value.
endpointLabel: pIC50

1. 4CXCR010G10 (VHH, Alexa-647 label in the competition FACS of D-2, also called P4CXCR10G10; not shown: C-terminal c-myc tag and His6 tag) VHH: EVQLVESGGGLVQAGGSLRLSCAASGRTFNSYAMAWFRQAPGKERENVAAIRWSGGRATKYADSVRGRFTISKDNAKNTVYLQMSSLKPEDTAVYYCATQTYYRSGLASTRDFDSWGQGTQVTVSS :: 8.10
2. 4CXCR014A02 (VHH, also called 14A2; not shown: C-terminal c-myc tag and His6 tag) VHH: EVQLVESGGGLVQAGGSLRLSCVASGISSSIRNMGWYRQAPGKQRESVATISSGGNKDYTDAVKDRFTISRDTTKNTVYLQMSSLKPEDTAVYYCKIEAGTGWATRRGYTYWGQGTQVTVSS :: 8.39
3. 4CXCR281E10 (VHH, Family member of 238D4 (family 17); also called P4CXCR281E10; not shown: C-terminal c-myc tag and His6 tag) VHH: EVQLVESGGGLVQAGGSLRLSCKASGGTFNNYAMGWFRRAPGKEREFVAAITRSGVRSGVSAIYGDSVKDRFTISRDNVKNTLYLQMNTLKPEDTAVYTCAASAIGSGALRRFEYDYSGQGTQVTVSS :: 8.51
4. 4CXCR010E09 (VHH, Monovalent Nanobody from E. coli; also called 10E9; P4CXCR10E09; not shown: C-terminal c-myc tag and His6 tag) VHH: EVQLVESGGGLVQTGGSLRLSCAASGRTFSSYAMGWFRRAPGKEREFVATISWRGDRKYYSESVKDRFTIARGRSNKNAVYLQMNSLKPEDTAVYYCAKDRAPYGSGSPDVKQYEHWGQGTQVTVSS :: 8.33
